# System Under Test: ΔF508-CFTR (Homo sapiens, UniProt P13569, DEL508-508)
# Construct: host or cells: CFBE41o-, doxycycline-inducible
# Sequence (P13569 with tags, fused parts or gaps DEL508-508): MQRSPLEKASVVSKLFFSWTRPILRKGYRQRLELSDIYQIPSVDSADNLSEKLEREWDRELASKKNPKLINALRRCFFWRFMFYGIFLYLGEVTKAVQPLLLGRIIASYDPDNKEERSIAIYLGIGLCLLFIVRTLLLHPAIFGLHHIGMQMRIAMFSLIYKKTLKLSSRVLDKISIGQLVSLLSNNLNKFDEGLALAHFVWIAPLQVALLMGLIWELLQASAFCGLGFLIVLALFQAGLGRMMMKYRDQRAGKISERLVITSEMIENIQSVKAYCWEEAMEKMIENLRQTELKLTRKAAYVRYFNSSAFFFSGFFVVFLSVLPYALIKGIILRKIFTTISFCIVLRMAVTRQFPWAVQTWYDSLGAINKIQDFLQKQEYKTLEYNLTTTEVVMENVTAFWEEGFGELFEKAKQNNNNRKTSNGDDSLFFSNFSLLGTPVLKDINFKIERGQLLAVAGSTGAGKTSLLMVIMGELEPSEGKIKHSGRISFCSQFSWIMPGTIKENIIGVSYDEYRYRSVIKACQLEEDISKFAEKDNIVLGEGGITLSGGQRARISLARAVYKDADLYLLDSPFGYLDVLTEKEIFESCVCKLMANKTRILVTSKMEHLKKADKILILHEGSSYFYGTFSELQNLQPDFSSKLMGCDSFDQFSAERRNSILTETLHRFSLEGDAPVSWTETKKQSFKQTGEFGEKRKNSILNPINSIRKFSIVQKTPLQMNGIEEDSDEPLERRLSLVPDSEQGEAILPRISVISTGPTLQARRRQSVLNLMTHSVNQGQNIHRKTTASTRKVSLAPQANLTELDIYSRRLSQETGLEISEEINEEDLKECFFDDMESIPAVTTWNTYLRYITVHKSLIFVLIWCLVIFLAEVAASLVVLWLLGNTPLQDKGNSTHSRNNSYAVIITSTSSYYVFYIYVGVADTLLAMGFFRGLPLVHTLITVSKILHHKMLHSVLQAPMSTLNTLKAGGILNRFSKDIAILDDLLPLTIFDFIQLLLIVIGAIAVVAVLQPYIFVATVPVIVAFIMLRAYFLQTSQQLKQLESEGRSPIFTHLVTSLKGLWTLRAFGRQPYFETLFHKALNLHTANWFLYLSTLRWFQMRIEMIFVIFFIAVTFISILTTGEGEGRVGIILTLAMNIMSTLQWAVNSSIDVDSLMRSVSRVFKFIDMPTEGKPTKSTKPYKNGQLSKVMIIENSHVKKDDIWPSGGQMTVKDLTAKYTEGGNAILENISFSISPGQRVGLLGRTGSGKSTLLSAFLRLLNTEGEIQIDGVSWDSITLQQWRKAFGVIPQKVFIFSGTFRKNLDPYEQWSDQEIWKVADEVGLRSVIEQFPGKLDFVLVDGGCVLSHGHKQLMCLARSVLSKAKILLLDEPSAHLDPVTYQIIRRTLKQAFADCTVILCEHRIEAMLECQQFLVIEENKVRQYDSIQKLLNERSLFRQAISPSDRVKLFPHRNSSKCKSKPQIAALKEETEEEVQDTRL
# Method Notes: CFTR cell surface levels using HRP-tagged ΔF508-CFTR expressing CFBE cells, intrinsic corrector capacity
# Assay type: cell-based
# Measurement Setup: HRP-tagged ΔF508-CFTR expressing CFBE cells; intrinsic corrector capacity (no co-corrector); 33° C., 20 hours; read-out: EC50
Recorded pEC50 for the following compounds
Lab note — pEC50 values are minus log10 of concentrations in M.

Study these solved cases before continuing.
COc1cccc(-n2nc(C3CCC3)c3c(N4CCC(N5CCOCC5)CC4)cc(C(=O)O)nc32)c1 = 6.52
CC(C)N1CCN(c2ccc(-c3cc(C(=O)O)nc4c3c(C3CCC3)nn4C3CCCCC3)cn2)CC1 = 6.36
O=C(O)c1cc(N2CCCCCC2)c2c(C3CCC3)nn(-c3ccccc3)c2n1 = 5.99

Please look at N#CC1CCN(c2ccc(-c3cc(C(=O)O)nc4c3c(C3CC(F)(F)C3)nn4-c3ccccc3)cn2)CC1 and tell me its recorded pEC50 on ΔF508-CFTR (Homo sapiens, UniProt P13569, DEL508-508).
6.27
